experimentalProtocol: in vivo
reportedConditions: rat, iv, 3 mg/kg

[
  {
    "molecule": "NCC(=O)N1CCC[C@H]1C(=O)N[C@@H](CCC(=O)O)C(=O)O [GPE, glycine-proline-glutamate]",
    "level at 8 min": "9.8 ng/mL"
  }
]

----------
experimentalProtocol: in vivo
reportedConditions: rat, iv, 30 mg/kg
experimentalReadout: level at 1 min (ng/mL)

[
  {
    "compound": "NCC(=O)N1CCC[C@H]1C(=O)N[C@@H](CCC(=O)O)C(=O)O [GPE, glycine-proline-glutamate]",
    "experimentalReadout": "level at 1 min",
    "measuredValue": 33000
  }
]

These entries and their values trace back to patent US20070224165A1.
